# Tested on: hot plate stimulus
# testMethodNotes: Mouse hot plate test
# Assay type: in vivo
# testParameters: dose 40 mg/kg, time 120 min.
Non-standard residues stand in square brackets, D forms with d. Residues, ends and D or L forms follow the SMILES beside them. dNle = CCCC[C@@H](N)C(=O)O; Orn = NCCC[C@H](N)C(=O)O; Dab = NCC[C@H](N)C(=O)O
Catalogue of compounds with associated % of animals showing a 50% increase
Use % as the unit, but write only the number.

Completed entries (count: 3):
INSERT INTO results (compound, measuredvalue) VALUES
  ('N=C(N)NCCC[C@@H](NC(=O)[C@@H](N)Cc1ccc(O)cc1)C(=O)N[C@@H](Cc1ccccc1)C(=O)N[C@@H](CCCN)C(N)=O', 100),
  ('C[C@@H](NC(=O)[C@@H](N)Cc1ccc(O)cc1)C(=O)N[C@@H](Cc1ccccc1)C(=O)N[C@@H](CCCCN)C(N)=O [BCH-1789, H-Tyr-D-Ala-Phe-Lys-NH2] (H-Y[dA]FK-NH2)', 40),
  ('CCCC[C@@H](NC(=O)[C@@H](N)Cc1ccc(O)cc1)C(=O)N[C@@H](Cc1ccccc1)C(=O)N[C@@H](CCCN)C(N)=O [BCH-1763, H-Tyr-D-Nle-Phe-Orn-NH2] (H-Y[dNle]F[Orn]-NH2)', 90);

Name the value of % of animals showing a 50% increase reported for CC[C@@H](C)[C@@H](NC(=O)[C@@H](N)Cc1ccc(O)cc1)C(=O)N[C@@H](Cc1ccccc1)C(=O)N[C@@H](CCCCN)C(N)=O [BCH-2203, H-Tyr-D-Ile-Phe-Lys-NH2] (H-Y[dI]FK-NH2) when tested on hot plate stimulus.
80

Name the value of % of animals showing a 50% increase reported for CC(C)[C@@H](NC(=O)[C@@H](N)Cc1ccc(O)cc1)C(=O)N[C@@H](Cc1ccccc1)C(=O)N[C@@H](CCCCN)C(N)=O [BCH-2206, H-Tyr-D-Val-Phe-Lys-NH2] (H-Y[dV]FK-NH2) when tested on hot plate stimulus.
30

Name the value of % of animals showing a 50% increase reported for C[C@@H](NC(=O)[C@@H](N)Cc1ccc(O)cc1)C(=O)N[C@@H](Cc1ccccc1)C(=O)N[C@@H](CCN)C(N)=O [BCH-2470, H-Tyr-D-Ala-Phe-A2 bu-NH2] (H-Y[dA]F[Dab]-NH2) when tested on hot plate stimulus.
90

====

Catalogue of compounds with associated pKi
# system: μ-opioid receptor (Rattus norvegicus)
# Construct: displacement of the radioligands from the rat brain membrane preparations; from tissue; host or cells: rat brain membrane preparations
# Sequence (P33535 whole entry): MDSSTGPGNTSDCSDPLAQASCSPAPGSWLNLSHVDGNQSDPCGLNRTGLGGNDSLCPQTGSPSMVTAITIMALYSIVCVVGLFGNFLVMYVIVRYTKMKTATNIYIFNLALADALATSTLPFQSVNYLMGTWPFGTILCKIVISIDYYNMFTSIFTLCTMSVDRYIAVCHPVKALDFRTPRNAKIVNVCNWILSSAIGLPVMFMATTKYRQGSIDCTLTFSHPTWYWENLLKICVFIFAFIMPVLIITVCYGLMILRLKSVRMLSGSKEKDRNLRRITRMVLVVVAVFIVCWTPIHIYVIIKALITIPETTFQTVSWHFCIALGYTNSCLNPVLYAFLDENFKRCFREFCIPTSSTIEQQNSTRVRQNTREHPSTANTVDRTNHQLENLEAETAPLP
# testMethodNotes: biochemical
# Assay type: binding
Non-standard residues stand in square brackets, D forms with d. Residues, ends and D or L forms follow the SMILES beside them. dNva = CCC[C@@H](N)C(=O)O; Orn = NCCC[C@H](N)C(=O)O
Would you please state pKi, meaning minus log10 of the concentration in mol/L, as a bare number?

Completed entries (count: 2):
INSERT INTO assay_data (compound, measuredvalue) VALUES
  ('C[C@@H](NC(=O)[C@@H](N)Cc1ccc(O)cc1)C(=O)N[C@@H](Cc1ccccc1)C(=O)N[C@@H](CCCN)C(N)=O [BCH-2219, H-Tyr-D-Ala-Phe-Orn-NH2] (H-Y[dA]F[Orn]-NH2)', 7.97),
  ('C[C@@H](NC(=O)[C@@H](N)Cc1ccc(O)cc1)C(=O)N[C@@H](Cc1ccccc1)C(=O)N[C@@H](CCCCN)C(N)=O [BCH-1789, H-Tyr-D-Ala-Phe-Lys-NH2] (H-Y[dA]FK-NH2)', 7.48);

Kindly review the next compound as well.
Report measured pKi; entry is CCC[C@@H](NC(=O)[C@@H](N)Cc1ccc(O)cc1)C(=O)N[C@@H](Cc1ccccc1)C(=O)N[C@@H](CCCCN)C(N)=O [BCH-2200, H-Tyr-D-Nva-Phe-Lys-NH2] (H-Y[dNva]FK-NH2)
8.64
